- TESTED_TARGET: CDK2/E (Homo sapiens (Human))
- METHOD_DESCRIPTION: ADP-Glo Kinase Assay, CDK2/E
- Type: biochemical
- MEASUREMENT_CONTEXT: 1 μM compound
READOUT_KIND: CDK2/E % INH (1 μM) (%)
Field format: number, assumed %, no unit text.

{"COMPOUND": "CCn1c(NC2CCC(N)CC2)nc2c([N+](=O)[O-])c(Br)c(Br)cc21 (centres unmarked) [Example 1DU]", "DATA_VALUE": 53}
{"COMPOUND": "CC(C)n1c(N2CCC[C@H](N)C2)nc2c(C#N)c(Br)c(Br)cc21 [Example 1BV]", "DATA_VALUE": 11}
{"COMPOUND": "CC(C)n1c(N2CCC[C@H](N)C2)nc2c([N+](=O)[O-])c(Br)c(Br)cc21", "DATA_VALUE": 13}

So what does the record say about CDK2/E % INH (1 μM) for COCCn1c(N2CC[C@@H](N)C2)nc2c([N+](=O)[O-])c(Br)c(Br)cc21 ?
9

Repeat for the following compound: CCn1c(N2CCC[C@H](N)C2)nc2c([N+](=O)[O-])c(Br)c(Br)cc21
6

Then CC(C)n1c(N2CCC(N)CC2)nc2c([N+](=O)[O-])c(Br)c(Br)cc21 ?
39

---

- System: MV4-11 cells
- METHOD_DESCRIPTION: Growth inhibition, MTS assay, MV4-11
- Assay type: cell-based, Human
- MEASUREMENT_CONTEXT: 72 hours, MTS cell viability; read-out: MV4-11 ED50
READOUT_KIND: IC50 (nM)
Report the value in nM with no unit label.

{"COMPOUND": "CCn1c(N2CCC[C@H](N)C2)nc2c([N+](=O)[O-])c(Br)c(Br)cc21", "IC50 (nM)": 600}

I would be grateful if you could share the reported IC50 for O=[N+]([O-])c1c(Br)c(Br)cc2c1nc(N[C@@H]1CCCNC1)n2CC1CC1 .
5000

What do we get for CC(C)n1c(C2CCCC(N)C2)nc2c([N+](=O)[O-])c(Br)c(Br)cc21 (single isomer, unassigned) [Example 26C] ?
100

---

- TESTED_TARGET: DYRK1 (Homo sapiens (Human), UniProt Q13627)
- METHOD_DESCRIPTION: ADP-Glo Kinase Assay, DYRK1
- Format: biochemical
- MEASUREMENT_CONTEXT: 1 μM compound
READOUT_KIND: DYRK1A % INH (1 μM) (%)
Reply with just the number (in %).

Study these solved cases before continuing.
{"COMPOUND": "CC(C)n1c(N[C@@H]2CCCNC2)nc2c([N+](=O)[O-])c(Br)c(Br)cc21", "DISPLAY_UNIT": "%", "DYRK1A % INH (1 μM)": 64}
{"COMPOUND": "CC(C)n1c(N2CCNC[C@H]2C)nc2c([N+](=O)[O-])c(Br)c(Br)cc21 [Example 1AO]", "DISPLAY_UNIT": "%", "DYRK1A % INH (1 μM)": 15}
{"COMPOUND": "CCCn1c(NCCCN)nc2c([N+](=O)[O-])c(Br)c(Br)cc21", "DISPLAY_UNIT": "%", "DYRK1A % INH (1 μM)": 23}

Param item = CC(C)n1c(N2CCC[C@H](N)C2)nc2c(C#N)c(Br)c(Br)cc21 [Example 1BV] ; retrieve measured DYRK1A % INH (1 μM).
80

Similarly, CCn1c(N2CC[C@@H](N)C2)nc2c([N+](=O)[O-])c(Cl)c(Cl)cc21 ?
30

Next compound up: Cl.NC1CCCN(c2nc3c([N+](=O)[O-])c(Br)c(Br)cc3n2CC2CC2)C1 (centres unmarked)
46

How about CC(C)n1c(N2CC[C@H](N)C2)nc2c([N+](=O)[O-])c(Br)c(Br)cc21 ?
72

Also, CC(C)n1c(NC2CCNCC2)nc2c([N+](=O)[O-])c(Br)c(Br)cc21 please.
25

Check CC(C)n1c(N2CCC[C@H](N)C2)nc2c([N+](=O)[O-])c(Br)c(Br)cc21 too.
70

Now consider CCn1c(N2CCC[C@H](N)C2)nc2c([N+](=O)[O-])c(Cl)c(Cl)cc21 .
22

Next entry: O=[N+]([O-])c1c(Br)c(Br)cc2c1nc(N[C@@H]1CCCNC1)n2CC1CC1
14

Same for O=[N+]([O-])c1c(Br)c(Br)cc2c1nc(N[C@H]1CCNC1)n2CC1CC1
57

Here is the next compound: CC(C)n1c(N2CCC[C@H](N)C2)nc2c(C#N)c(Br)c(Br)cc21 [Example 1BJ]
54

Next: CCn1c(N[C@H]2CCCNC2)nc2c([N+](=O)[O-])c(Br)c(Br)cc21
40

What do you get for CC(C)n1c(N2CC[C@@H](N)C2)nc2c([N+](=O)[O-])c(Br)c(Br)cc21 ?
87

Next record, please: Cl.N[C@H]1CCN(c2nc3c([N+](=O)[O-])c(Br)c(Br)cc3n2CC2CC2)C1
23

Further, for CCn1c(N2CCNCC2)nc2c([N+](=O)[O-])c(Cl)c(Cl)cc21 ?
27

Check CC(C)n1c(NC2CCC(N)CC2)nc2c([N+](=O)[O-])c(Br)c(Br)cc21 (centres unmarked) too.
28

Next: O=[N+]([O-])c1c(Br)c(Br)cc2c1nc(N1CCNCC1)n2C1CCC1
92

Consider next the compound CC(C)n1c(NC2CCNC2)nc2c(C#N)c(Br)c(Br)cc21 (centres unmarked) [Example 1BK] in the same way.
48

Query CCn1c(NC2CCC(N)CC2)nc2c([N+](=O)[O-])c(Br)c(Br)cc21 (centres unmarked) [Example 1DU] next
39

Again, but for CC(C)n1c(N[C@H]2CCNC2)nc2c([N+](=O)[O-])c(Br)c(Br)cc21
53

---

Reported IC50 values for the following compounds.
- TESTED_TARGET: CYP3A4 (Homo sapiens (Human))
- Sequence (P08684 whole entry): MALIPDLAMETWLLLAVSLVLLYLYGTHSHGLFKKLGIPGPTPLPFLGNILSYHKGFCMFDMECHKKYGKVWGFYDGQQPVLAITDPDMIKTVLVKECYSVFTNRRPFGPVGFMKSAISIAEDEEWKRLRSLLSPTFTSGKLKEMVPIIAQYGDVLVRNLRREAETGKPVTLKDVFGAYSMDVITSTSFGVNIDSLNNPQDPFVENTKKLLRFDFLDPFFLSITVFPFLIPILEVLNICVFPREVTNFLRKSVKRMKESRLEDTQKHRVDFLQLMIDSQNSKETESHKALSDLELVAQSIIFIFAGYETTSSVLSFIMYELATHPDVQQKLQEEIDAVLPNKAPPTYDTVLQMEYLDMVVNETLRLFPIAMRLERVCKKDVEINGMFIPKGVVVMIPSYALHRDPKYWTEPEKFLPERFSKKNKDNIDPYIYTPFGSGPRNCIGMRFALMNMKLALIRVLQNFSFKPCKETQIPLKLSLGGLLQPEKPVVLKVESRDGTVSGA
- METHOD_DESCRIPTION: Cytochrome P450 inhibition, fluorescence, CYP3A4
- MEASUREMENT_CONTEXT: recombinant CYP3A4, fluorescence detection; read-out: CYP inhibition (CYP 3A4 screening, IC50 class)
Structures can show the parent of a compound that is named as a salt.

Some solved cases for reference:
{"COMPOUND": "CC(C)n1c(C2CCNCC2)nc2c([N+](=O)[O-])c(Br)c(Br)cc21 [Example 26A]", "IC50": "> 10 µM"}
{"COMPOUND": "CC(C)n1c(N2CCOC(CN)C2)nc2c(C#N)c(Br)c(Br)cc21 (stereo not drawn) [Example 1BM]", "IC50": "1.1 to 3.3 µM"}
{"COMPOUND": "CC(C)n1c(NC2CCNC2)nc2c(C#N)c(Br)c(Br)cc21 (stereo not drawn) [Example 1BH]", "IC50": "> 10 µM"}

What does the record list as IC50 for CC(C)n1c(NC2CCC(N)CC2)nc2c([N+](=O)[O-])c(Br)c(Br)cc21 (stereo not drawn) [Example 1BC] ?
3.3 to 10 µM

Another compound: NCCCNc1nc2c([N+](=O)[O-])c(Br)c(Br)cc2[nH]1 [Example 1D]
> 10 µM

Please do the same for CC(C)n1c(N2CCC[C@H](O)C2)nc2c([N+](=O)[O-])c(Br)c(Br)cc21 [Example 22I] as well.
> 10 µM

Another compound: CC(C)n1c(NCCOCCN)nc2c([N+](=O)[O-])c(Br)c(Br)cc21 [Example 22J]
3.3 to 10 µM

Now the compound Cl.O=[N+]([O-])c1c(Br)c(Br)cc2c1nc(N1CCNCC1)n2C1CCCC1 [Example 2D, hydrochloride]
1.1 to 3.3 µM

Next entry: CCC(C)n1c(N2CCNCC2)nc2c([N+](=O)[O-])c(Br)c(Br)cc21 (stereo not drawn) [Example 2I, hydrochloride]
3.3 to 10 µM

---

- TESTED_TARGET: Pim-2 (Homo sapiens (Human))
- Sequence (Q9P1W9 whole entry): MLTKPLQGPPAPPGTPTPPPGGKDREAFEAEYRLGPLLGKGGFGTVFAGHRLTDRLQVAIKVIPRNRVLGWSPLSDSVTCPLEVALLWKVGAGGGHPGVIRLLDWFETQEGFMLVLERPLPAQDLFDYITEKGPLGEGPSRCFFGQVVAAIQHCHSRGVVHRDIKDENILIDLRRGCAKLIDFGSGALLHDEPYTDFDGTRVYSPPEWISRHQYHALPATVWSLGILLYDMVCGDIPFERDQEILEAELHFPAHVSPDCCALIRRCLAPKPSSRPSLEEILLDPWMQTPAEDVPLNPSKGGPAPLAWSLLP
- METHOD_DESCRIPTION: ADP-Glo Kinase Assay, Pim-2
- Type: biochemical
- MEASUREMENT_CONTEXT: 1 μM compound
Below, each entry is listed alongside its reported Pim-2 % INH (1 μM).
API: value field is a number in %; no unit string.

Example cases with answers are listed next.
{"MOLECULE": "COCCn1c(N2CC[C@@H](N)C2)nc2c([N+](=O)[O-])c(Br)c(Br)cc21 [Example 1CS]", "READOUT_KIND": "Pim-2 % INH (1 μM)", "DISPLAY_UNIT": "%", "DATA_VALUE": 23}
{"MOLECULE": "CCn1c(N2CC[C@@H](N)C2)nc2c([N+](=O)[O-])c(Cl)c(Cl)cc21 [Example 1CO]", "READOUT_KIND": "Pim-2 % INH (1 μM)", "DISPLAY_UNIT": "%", "DATA_VALUE": 25}
{"MOLECULE": "CC(C)n1c(N2CCNC[C@H]2C)nc2c([N+](=O)[O-])c(Br)c(Br)cc21 [Example 1AX]", "READOUT_KIND": "Pim-2 % INH (1 μM)", "DISPLAY_UNIT": "%", "DATA_VALUE": 77}
{"MOLECULE": "CCCn1c(N2CCNCC2)nc2c([N+](=O)[O-])c(Br)c(Br)cc21 [Example 1M]", "READOUT_KIND": "Pim-2 % INH (1 μM)", "DISPLAY_UNIT": "%", "DATA_VALUE": 44}
{"MOLECULE": "CCCn1c(NCCCN)nc2c([N+](=O)[O-])c(Br)c(Br)cc21 [Example 1P]", "READOUT_KIND": "Pim-2 % INH (1 μM)", "DISPLAY_UNIT": "%", "DATA_VALUE": 36}
{"MOLECULE": "COCCn1c(N2CCNCC2)nc2c([N+](=O)[O-])c(Br)c(Br)cc21 [Example 1BB]", "READOUT_KIND": "Pim-2 % INH (1 μM)", "DISPLAY_UNIT": "%", "DATA_VALUE": 12}
{"MOLECULE": "CC(C)n1c(N2CCC[C@H](N)C2)nc2c([N+](=O)[O-])c(Br)c(Br)cc21 [Example 1AP]", "READOUT_KIND": "Pim-2 % INH (1 μM)", "DISPLAY_UNIT": "%", "DATA_VALUE": 80}
{"MOLECULE": "N[C@@H]1CCN(c2nc3c([N+](=O)[O-])c(Br)c(Br)cc3n2CC2CC2)C1 [Example 1BG]", "READOUT_KIND": "Pim-2 % INH (1 μM)", "DISPLAY_UNIT": "%", "DATA_VALUE": 82}
{"MOLECULE": "CCn1c(N[C@H]2CCCNC2)nc2c([N+](=O)[O-])c(Br)c(Br)cc21 [Example 1AA]", "READOUT_KIND": "Pim-2 % INH (1 μM)", "DISPLAY_UNIT": "%", "DATA_VALUE": 53}
{"MOLECULE": "O=[N+]([O-])c1c(Br)c(Br)cc2c1nc(N[C@@H]1CCCNC1)n2CC1CC1 [Example 1CH]", "READOUT_KIND": "Pim-2 % INH (1 μM)", "DISPLAY_UNIT": "%", "DATA_VALUE": 10}

Record request: Pim-2 % INH (1 μM) value, item CC(C)n1c(NC2CCNC2)nc2c(C#N)c(Br)c(Br)cc21 (stereo not shown) [Example 1BK]
63

Now consider CCn1c(N2CCC[C@H](N)C2)nc2c([N+](=O)[O-])c(Cl)c(Cl)cc21 [Example 1CT] .
28

Please give the result for CC(C)n1c(N2CC[C@H](N)C2)nc2c([N+](=O)[O-])c(Br)c(Br)cc21 [Example 1AZ] too.
70

Okay, and CC(C)n1c(NC2CCNC2)nc2c(C#N)c(Br)c(Br)cc21 (stereo not shown) [Example 1BH] ?
13

Then this molecule: CC(C)Cn1c(N2CCC[C@@H](N)C2)nc2c([N+](=O)[O-])c(Br)c(Br)cc21.Cl [Example 1AU]
52

Also, Cl.NC1CCCN(c2nc3c([N+](=O)[O-])c(Br)c(Br)cc3n2CC2CC2)C1 (stereo not shown) [Example 1AV] please.
54
